Just for reference, paper PMC9482650 is where these values come from.

# SUBJECT OF TEST: FRMPD2_3, Q68DX3
# Sequence (Q68DX3 1073-1166): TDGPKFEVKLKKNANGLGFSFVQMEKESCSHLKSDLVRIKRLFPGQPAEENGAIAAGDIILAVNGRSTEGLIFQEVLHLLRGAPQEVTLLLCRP
# TEST METHOD NOTES: holdup assay
# Parameters: key: below the threshold = too weak to quantify, mostly under pKd 3.1 to 4
# TEST SETTINGS: plain residues with an end cap or a label only (N-terminal biotin on a linker: ado-ado)

{"columns": ["BINDER", "pKd"],
 "data": [
  ["IPLDGETEEL [MYOZ1, Q9NP98]", "below the threshold"],
  ["TPPAAKKSRI [BAZ1A, Q9NRL2]", "below the threshold"],
  ["QSLNRMEYIV [JAG1, P78504]", 4.36],
  ["TSQESEDTYL [TBC1D10A, Q9BXI6]", "below the threshold"],
  ["HSGYRLNDYV [CLDN14, O95500]", "below the threshold"],
  ["YLEPVLSSEL [ATP2A2, P16615;P16615-3]", "below the threshold"]
]}
